Assign protein stability index to each entry below.
- Tested on: Saccharomyces cerevisiae
- experimental details: protein stability index of tFT-peptide fusion (C-terminal peptide) (PSI (0-1 scale)); higher = more stable (slower turnover);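 further: PSI is a weighted mean of sequencing reads over stability bins, variants kept only with over 10 reads, mCherry proximal and sfGFP distal, peptide attached via GGGS linker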
- assay context: genetic background: doa10 deletion; temperature: 30 C
Answers are plain numbers.

sequence content: WFFLFGFVFFFR
protein stability index: 0.433
--
sequence content: LCSLSIFVLFSC
protein stability index: 0.141
--
sequence content: FVFCGVVFLFLL
protein stability index: 0.347
--
sequence content: LPPFRFSLPFRR
protein stability index: 0.64
--
sequence content: LCFLVLLSLLLL
protein stability index: 0.466

List the reported protein stability index of each sequence below.
1. VCRGWCVVRYIL
2. GSLVLSCLMSRA
3. LVGLLASWLRFN
4. GTIFLIRVLLFG
5. RNFSFTVICLAM

1: 0.173; 2: 0.431; 3: 0.12; 4: 0.171; 5: 0.472

List the reported protein stability index of each sequence below.
1. GFVVYLLLSYLF
2. RFCRVERAILLR
3. CPFLTLLISLDV
4. RGCFVLRKTHLL
5. VTSVARVVLHLL
6. SLTHTPLGVTRT

[0.256, 0.622, 0.407, 0.126, 0.0931, 0.635]

List the reported protein stability index of each sequence below.
1. LLSILSSLPLSR
2. FVFIFIRVFFFR

1. 0.654
2. 0.171

---

- Tested on: Saccharomyces cerevisiae
- experimental details: protein stability index of tFT-peptide fusion (C-terminal peptide) (PSI (0-1 scale)); higher = more stable (slower turnover)
- assay context: genetic background: wild type; temperature: 30 C
readout name: protein stability index
Answers are plain numbers.

Answered cases to consult:
sequence content: GSLVGATVSKEC
tested target: Saccharomyces cerevisiae
protein stability index: 0.63
//
sequence content: WSSTTISVQRGL
tested target: Saccharomyces cerevisiae
protein stability index: 0.7
//
sequence content: STPDRFVSRGRQ
tested target: Saccharomyces cerevisiae
protein stability index: 0.702
//
sequence content: GWESCLGVTRSV
tested target: Saccharomyces cerevisiae
protein stability index: 0.69
//
sequence content: RTQYEVGVGTGG
tested target: Saccharomyces cerevisiae
protein stability index: 0.692
//
sequence content: SSLMGGLSAYPG
tested target: Saccharomyces cerevisiae
protein stability index: 0.694
//
sequence content: SPPPLNTFPPLP
tested target: Saccharomyces cerevisiae
protein stability index: 0.691
//
sequence content: HPGPPPPPAAAA
tested target: Saccharomyces cerevisiae
protein stability index: 0.679
//
sequence content: NGKFLREKMRWG
tested target: Saccharomyces cerevisiae
protein stability index: 0.662
//
sequence content: CPICDFLFLALF
tested target: Saccharomyces cerevisiae
protein stability index: 0.424

List the reported protein stability index of each sequence below.
1. VPLRPFFPTLFP
2. DKGTDKDDVKIM
3. SWKFAFWCFLGR
4. LVCHDWFSFYMF
5. WGGYLISLNLYN

[0.712, 0.686, 0.567, 0.64, 0.561]

# get_value(readout='protein stability index', item= EYRTAIYFQSLL ) 0.701

---

- Tested on: Saccharomyces cerevisiae
- experimental details: protein stability index of tFT-peptide fusion (C-terminal peptide) (PSI (0-1 scale)); higher = more stable (slower turnover)
- assay context: genetic background: wild type; temperature: 30 C
readout name: protein stability index
Answers are plain numbers.

Answered cases to consult:
sequence content: ILCPSPAPTSFP
protein stability index: 0.668
--
sequence content: WPVPPASYPALS
protein stability index: 0.728
--
sequence content: SFNDVPPPEGIK
protein stability index: 0.67

List the reported protein stability index of each sequence below.
1. LSSSTHNLDFLQ
2. WRLVREGRMRGG
3. PYPSVIFFLHVY

1. 0.698
2. 0.742
3. 0.251

List the reported protein stability index of each sequence below.
1. SVPPCSLPPLPP
2. PFRSFVFSLDPF
3. ALSELSIDISHI

[0.641, 0.725, 0.632]

List the reported protein stability index of each sequence below.
1. PPRSPPPPRLLL
2. CSRFPYSHSLSQ
3. VSSVTFSLSFAL
4. EWVWVVFSCVSW

1: 0.724; 2: 0.716; 3: 0.813; 4: 0.347

List the reported protein stability index of each sequence below.
1. GSLRRSHYLLRA
2. EALKCFADAYTC
3. PPPRSPLLPSPL
4. RPCDLISGFCGL
5. REEGIEKKEKIR
6. WFKSIREGKGSR

1: 0.588; 2: 0.661; 3: 0.687; 4: 0.695; 5: 0.678; 6: 0.68
